# Protocol Summary: amyloid nucleation score (Sup35N fusion, yeast selection) (log enrichment); library NNK1; higher = more nucleation; inactive = no reads after selection;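 also: zero at mode of non-aggregating sequences after 7 days selection at 30°C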
Classify by measured amyloid nucleation score: Met if it is equal to or exceeds -0.09, Not met if it is smaller.

Observe how each entry below is paired with its result.
INSERT INTO measurements (substance, class_label) VALUES
  ('NPPVWPSTFQE', 'Not met'),
  ('YEYQEKFSFYIEVLGKDSLS', 'Not met'),
  ('GMYLFECCYMGRRFSSWVGN', 'Met');

## Input Determine whether this substance has amyloid nucleation score no lower than -0.09: LHESVFSWSSKLSLRHGYLR
## Output Met

## Input Determine whether this substance has amyloid nucleation score no lower than -0.09: FNVISVWSPWQW
## Output Met

Value source: the supplement of paper PMC12042874
